inhibition at 10 µM reference
Molecular target: CaV1.3 LTCCs expressed in HEK293 cells (Rattus norvegicus)
Assay: Automated planar whole-cell patch-clamp recording, CaV1.3
Assay type: cell-based
Conditions: HEK293, read-out: % Inhibition (10 μM) CaV1.3
Use % as the unit, but write only the number.

These recorded examples may help you get a feel for the data.
MOLECULE	inhibition at 10 µM, %
O=C1C(c2cccc(C(F)(F)F)c2)C(=O)N(CCc2cccc(Cl)c2)C(=O)N1CCCc1ccc(Cl)cc1 (stereo not shown) [14b]	95.6
O=C1C(c2cccc(C(F)(F)F)c2)C(=O)N(CCc2cccc(Cl)c2)C(=O)N1CCCc1ccc(C(F)(F)F)cc1 (stereo not shown) [14d]	93.1
O=C1C(c2cccc(C(F)(F)F)c2)C(=O)N(CCc2cccc(Cl)c2)C(=O)N1CCCCc1ccc(C(F)(F)F)cc1 (stereo not shown) [14g]	82.8
O=C1C(c2cccc(C(F)(F)F)c2)C(=O)N(CCc2cccc(Cl)c2)C(=O)N1CCCCc1ccc(Cl)cc1 (stereo not shown) [14e]	93.8
O=C1C(c2cccc(C(F)(F)F)c2)C(=O)N(CCc2cccc(Cl)c2)C(=O)N1CCCc1cccc(Cl)c1 (stereo not shown) [14c]	97.3
O=C1C(c2cccc([N+](=O)[O-])c2)C(=O)N(C2CCCC2)C(=O)N1CCCCc1cccc(Cl)c1 (stereo not shown) [14a]	76.9

# evaluate next
Q) What value of inhibition at 10 µM has been reported for the following molecule? O=C1C(c2cccc(C(F)(F)F)c2)C(=O)N(CCc2cccc(Cl)c2)C(=O)N1CCCCc1cccc(Cl)c1 (stereo not shown) [14f]
A) 79.8

---

Biological target: CaV1.2 L-type calcium channel (Homo sapiens, UniProt Q13936)
Sequence (Q13936 whole entry): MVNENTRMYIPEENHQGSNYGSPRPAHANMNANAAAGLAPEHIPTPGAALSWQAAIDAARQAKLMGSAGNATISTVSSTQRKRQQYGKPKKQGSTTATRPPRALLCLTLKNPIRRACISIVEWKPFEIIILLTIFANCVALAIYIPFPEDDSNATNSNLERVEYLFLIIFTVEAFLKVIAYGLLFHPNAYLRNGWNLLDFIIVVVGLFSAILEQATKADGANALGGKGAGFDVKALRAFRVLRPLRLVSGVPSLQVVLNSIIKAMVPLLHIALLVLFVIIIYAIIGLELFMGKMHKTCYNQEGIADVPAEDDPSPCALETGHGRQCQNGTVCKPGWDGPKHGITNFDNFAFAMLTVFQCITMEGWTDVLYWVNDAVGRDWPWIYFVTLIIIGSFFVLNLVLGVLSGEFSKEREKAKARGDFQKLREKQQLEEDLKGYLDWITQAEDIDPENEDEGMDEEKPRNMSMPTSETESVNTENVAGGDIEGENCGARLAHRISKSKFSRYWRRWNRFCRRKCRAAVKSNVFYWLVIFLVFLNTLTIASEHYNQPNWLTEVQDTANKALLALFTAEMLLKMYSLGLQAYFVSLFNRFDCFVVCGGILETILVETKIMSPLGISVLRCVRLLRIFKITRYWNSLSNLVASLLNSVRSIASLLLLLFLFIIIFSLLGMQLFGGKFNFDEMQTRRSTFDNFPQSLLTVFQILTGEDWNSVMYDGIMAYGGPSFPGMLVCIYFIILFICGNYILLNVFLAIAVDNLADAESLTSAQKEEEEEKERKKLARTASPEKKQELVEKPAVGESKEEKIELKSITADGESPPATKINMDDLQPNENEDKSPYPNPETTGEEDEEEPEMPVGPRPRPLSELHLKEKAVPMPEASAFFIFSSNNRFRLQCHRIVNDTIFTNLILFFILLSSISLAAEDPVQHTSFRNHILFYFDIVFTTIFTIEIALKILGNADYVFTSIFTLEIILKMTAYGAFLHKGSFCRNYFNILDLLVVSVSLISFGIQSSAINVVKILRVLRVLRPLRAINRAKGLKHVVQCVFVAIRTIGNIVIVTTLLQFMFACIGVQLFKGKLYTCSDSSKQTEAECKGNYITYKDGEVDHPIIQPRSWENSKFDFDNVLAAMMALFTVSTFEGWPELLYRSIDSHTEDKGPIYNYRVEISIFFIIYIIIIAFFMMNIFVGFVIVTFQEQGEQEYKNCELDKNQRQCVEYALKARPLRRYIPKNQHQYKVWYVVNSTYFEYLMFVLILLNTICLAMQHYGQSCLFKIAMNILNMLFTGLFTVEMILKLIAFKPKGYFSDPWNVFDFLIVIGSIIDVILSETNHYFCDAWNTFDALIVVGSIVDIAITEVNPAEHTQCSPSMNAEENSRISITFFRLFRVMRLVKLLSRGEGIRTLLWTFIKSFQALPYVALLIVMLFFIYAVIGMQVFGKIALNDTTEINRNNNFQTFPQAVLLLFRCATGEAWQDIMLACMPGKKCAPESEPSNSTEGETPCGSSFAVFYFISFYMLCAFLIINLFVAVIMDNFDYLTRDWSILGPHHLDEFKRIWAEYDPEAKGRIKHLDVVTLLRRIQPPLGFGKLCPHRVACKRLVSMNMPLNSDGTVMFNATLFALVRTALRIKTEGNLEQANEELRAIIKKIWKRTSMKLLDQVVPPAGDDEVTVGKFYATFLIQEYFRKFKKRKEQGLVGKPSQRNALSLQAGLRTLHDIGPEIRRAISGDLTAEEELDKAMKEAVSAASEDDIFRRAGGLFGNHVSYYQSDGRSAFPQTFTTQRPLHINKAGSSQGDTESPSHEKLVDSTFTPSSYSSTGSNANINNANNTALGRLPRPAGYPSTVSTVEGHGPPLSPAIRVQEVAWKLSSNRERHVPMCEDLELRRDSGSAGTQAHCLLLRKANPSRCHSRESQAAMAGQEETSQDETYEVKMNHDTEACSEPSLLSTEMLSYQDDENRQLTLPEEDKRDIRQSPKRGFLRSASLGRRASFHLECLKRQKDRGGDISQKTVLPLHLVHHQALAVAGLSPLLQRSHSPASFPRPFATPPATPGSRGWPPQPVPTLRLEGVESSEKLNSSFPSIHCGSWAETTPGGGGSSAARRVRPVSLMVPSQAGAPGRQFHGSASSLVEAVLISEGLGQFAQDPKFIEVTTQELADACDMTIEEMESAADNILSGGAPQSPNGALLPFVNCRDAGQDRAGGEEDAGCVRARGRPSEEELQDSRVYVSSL
Sequence (P54284 whole entry partner): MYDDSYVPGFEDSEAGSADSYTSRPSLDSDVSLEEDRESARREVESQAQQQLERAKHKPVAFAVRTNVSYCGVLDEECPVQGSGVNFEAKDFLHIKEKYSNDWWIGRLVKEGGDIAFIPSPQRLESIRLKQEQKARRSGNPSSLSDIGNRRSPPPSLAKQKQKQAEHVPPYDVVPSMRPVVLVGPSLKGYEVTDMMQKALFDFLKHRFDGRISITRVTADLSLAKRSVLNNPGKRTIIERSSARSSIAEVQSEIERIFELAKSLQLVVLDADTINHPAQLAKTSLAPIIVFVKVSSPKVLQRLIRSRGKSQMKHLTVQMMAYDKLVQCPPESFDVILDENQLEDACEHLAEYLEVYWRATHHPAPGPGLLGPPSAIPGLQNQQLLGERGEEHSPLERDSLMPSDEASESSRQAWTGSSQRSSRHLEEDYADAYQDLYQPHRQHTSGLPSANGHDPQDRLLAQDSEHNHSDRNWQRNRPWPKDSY
Sequence (P54289 25-946 partner limits assumed): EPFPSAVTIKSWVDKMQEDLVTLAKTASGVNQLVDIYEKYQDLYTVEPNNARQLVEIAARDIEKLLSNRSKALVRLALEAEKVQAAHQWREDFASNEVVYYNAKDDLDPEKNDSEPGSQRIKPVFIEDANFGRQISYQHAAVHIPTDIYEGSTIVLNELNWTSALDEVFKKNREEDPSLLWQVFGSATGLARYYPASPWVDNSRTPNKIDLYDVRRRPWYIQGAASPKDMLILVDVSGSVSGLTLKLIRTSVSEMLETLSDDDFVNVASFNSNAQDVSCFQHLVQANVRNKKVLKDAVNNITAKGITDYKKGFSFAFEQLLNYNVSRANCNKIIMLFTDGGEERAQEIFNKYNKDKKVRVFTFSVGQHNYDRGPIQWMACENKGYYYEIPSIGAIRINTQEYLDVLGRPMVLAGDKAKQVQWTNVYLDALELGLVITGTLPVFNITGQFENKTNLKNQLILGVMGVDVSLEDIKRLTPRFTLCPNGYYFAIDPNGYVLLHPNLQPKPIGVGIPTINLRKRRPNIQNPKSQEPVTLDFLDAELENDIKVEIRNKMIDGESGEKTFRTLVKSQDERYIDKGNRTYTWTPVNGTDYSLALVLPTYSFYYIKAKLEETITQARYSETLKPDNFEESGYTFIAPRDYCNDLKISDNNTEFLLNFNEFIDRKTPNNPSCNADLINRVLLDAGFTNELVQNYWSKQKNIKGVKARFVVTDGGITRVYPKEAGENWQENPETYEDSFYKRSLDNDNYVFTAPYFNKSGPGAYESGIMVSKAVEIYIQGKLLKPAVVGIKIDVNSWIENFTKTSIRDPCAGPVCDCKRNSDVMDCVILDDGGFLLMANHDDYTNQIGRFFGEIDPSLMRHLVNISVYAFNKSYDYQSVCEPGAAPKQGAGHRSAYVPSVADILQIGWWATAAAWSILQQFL
Sequence (P54289 947-1103 partner limits assumed): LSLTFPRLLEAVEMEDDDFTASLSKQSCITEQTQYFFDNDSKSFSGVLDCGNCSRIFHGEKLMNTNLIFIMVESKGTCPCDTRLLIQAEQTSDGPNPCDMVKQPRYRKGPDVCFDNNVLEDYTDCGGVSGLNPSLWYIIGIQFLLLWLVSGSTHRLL
Assay: Automated planar whole-cell patch-clamp recording, CaV1.2
Format: cell-based
Conditions: pH 7.4
Measured inhibition at 10 µM, listed per entry for reference.
Value expressed in %; do not type the unit.

A selection of reference data follows.
MOLECULE	inhibition at 10 µM (%)
O=C1C(c2cccc(C(F)(F)F)c2)C(=O)N(CCc2cccc(Cl)c2)C(=O)N1CCCc1ccc(C(F)(F)F)cc1 (stereo not shown) [14d]	81.2
O=C1C(c2cccc(C(F)(F)F)c2)C(=O)N(CCc2cccc(Cl)c2)C(=O)N1CCCCc1cccc(Cl)c1 (stereo not shown) [14f]	100
O=C1C(c2cccc(C(F)(F)F)c2)C(=O)N(CCc2cccc(Cl)c2)C(=O)N1CCCc1ccc(Cl)cc1 (stereo not shown) [14b]	98.8
O=C1C(c2cccc(C(F)(F)F)c2)C(=O)N(CCc2cccc(Cl)c2)C(=O)N1CCCCc1ccc(Cl)cc1 (stereo not shown) [14e]	96.1

Q) So what's the measured inhibition at 10 µM for this one? O=C1C(c2cccc([N+](=O)[O-])c2)C(=O)N(C2CCCC2)C(=O)N1CCCCc1cccc(Cl)c1 (stereo not shown) [14a]
A) 72.7

Q) Returns the measured inhibition at 10 µM for the input molecule. Input: O=C1C(c2cccc(C(F)(F)F)c2)C(=O)N(CCc2cccc(Cl)c2)C(=O)N1CCCc1cccc(Cl)c1 (stereo not shown) [14c]
A) 99.2

Q) inhibition at 10 µM for O=C1C(c2cccc(C(F)(F)F)c2)C(=O)N(CCc2cccc(Cl)c2)C(=O)N1CCCCc1ccc(C(F)(F)F)cc1 (stereo not shown) [14g] ?
A) 88.2
